biological target: T1, human CD16A-Fc^48R/158V fusion protein (human, UniProt P08637 17-208, limits assumed); experiment: SPR, BIAcore 2000, CD16A-Fc immobilized on CM5, koff/kon
T1 construct: Secreted soluble fusion made in HEK-293 cells; also called CD16-Fc; CD16A Fc-fusion protein; not shown: Fc portion of human IgG1
T1 sequence (P08637 17-208 L66R/F176V limits assumed): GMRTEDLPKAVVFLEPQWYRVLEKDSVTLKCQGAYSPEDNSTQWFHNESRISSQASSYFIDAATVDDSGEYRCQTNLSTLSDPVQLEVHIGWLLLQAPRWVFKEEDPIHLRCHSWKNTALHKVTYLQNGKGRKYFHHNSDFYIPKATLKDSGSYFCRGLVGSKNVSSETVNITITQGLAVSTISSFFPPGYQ
property_name: Kd (nM)
Enter your answer as a number in nM; do not include the unit.

Query :: I am curious: what Kd value has been reported for affinity matured anti-CD16A scFv 4-LS21 (scFv, IMAC-purified from pSKK2) scFv: EVQLVQSGAEVKKPGESLKVSCKASGYTFTSYYMHWVRQAPGQGLEWMGIINPSGGSTSYAQKFQGRVTMTRDTSTSTVYMELSSLRSEDTAVYYCARGSAYYYDFADYWGQGTLVTVSSGSASAPTLKLEEGEFSEARVQPVLTQPSSVSVAPGQTATISCGGHNIGSKNVHWYQQRPGQSPVLVIYQDNKRPSGIPERFSGSNSGNTATLTISGTQAMDEADYYCQVWDNYSVLFGGGTKLTVLGQPKAAPSVTLFPPSAAAGSEQKLISEEDLNSHHHHHH ?
Result :: 113
